Target: Cytosolic phospholipase A2 (Homo sapiens)
Sequence (whole entry): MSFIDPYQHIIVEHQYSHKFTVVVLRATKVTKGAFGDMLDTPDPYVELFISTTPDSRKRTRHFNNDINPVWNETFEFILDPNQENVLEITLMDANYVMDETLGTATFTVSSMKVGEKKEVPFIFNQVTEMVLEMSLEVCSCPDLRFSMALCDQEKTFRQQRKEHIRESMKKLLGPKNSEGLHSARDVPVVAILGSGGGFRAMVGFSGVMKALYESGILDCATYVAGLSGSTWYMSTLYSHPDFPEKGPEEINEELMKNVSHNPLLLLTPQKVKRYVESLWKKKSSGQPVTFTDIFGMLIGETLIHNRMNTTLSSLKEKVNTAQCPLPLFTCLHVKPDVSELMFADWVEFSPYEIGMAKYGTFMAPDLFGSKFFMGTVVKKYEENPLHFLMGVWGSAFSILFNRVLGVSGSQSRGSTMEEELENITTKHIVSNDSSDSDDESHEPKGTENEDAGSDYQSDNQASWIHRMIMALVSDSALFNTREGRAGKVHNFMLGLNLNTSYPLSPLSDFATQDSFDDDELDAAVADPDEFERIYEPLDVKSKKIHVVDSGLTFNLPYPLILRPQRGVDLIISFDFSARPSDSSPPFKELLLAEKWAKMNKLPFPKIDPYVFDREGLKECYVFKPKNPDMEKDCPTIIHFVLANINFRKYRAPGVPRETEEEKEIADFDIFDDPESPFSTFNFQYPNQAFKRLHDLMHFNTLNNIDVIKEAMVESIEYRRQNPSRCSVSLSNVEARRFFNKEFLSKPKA
Assay: Inhibition of human group 4A cytosolic Ca2+-dependent phospholipase A2 at 0.091 mole fraction by modified Dole assay
Would you please tag the item true (1) when its inhibition is 60% or above, and false (0) when it is below?

| QUERY SMILES | SYSTEM NAME | GROUP |
| --- | --- | --- |
| CCCCCCCCCCCCCCC(=O)C(=O)NCCC(=O)OC | Cytosolic phospholipase A2 (Homo sapiens) | false (0) |
| COC(=O)CNC(=O)C(=O)CCCCCCc1ccccc1 | Cytosolic phospholipase A2 (Homo sapiens) | false (0) |
| CCCCCCCCCCCCCCC(=O)C(=O)NCCCCC(=O)OC | Cytosolic phospholipase A2 (Homo sapiens) | false (0) |
| CCCCCCCCCCCCCCC(=O)C(=O)N[C@H](/C=C/C=C/C(=O)OCC)CCCC | Cytosolic phospholipase A2 (Homo sapiens) | true (1) |
| CCCCCCCCCCCCCCC(=O)C(=O)NCCCC(=O)OCc1ccccc1 | Cytosolic phospholipase A2 (Homo sapiens) | false (0) |
| CCCCCCCCCCCCCCC(=O)C(=O)NCC(=O)OC | Cytosolic phospholipase A2 (Homo sapiens) | true (1) |
| CCCCCCCCCCCCCCC(=O)C(=O)N[C@@H](CCCC)CCCCC(=O)OCC | Cytosolic phospholipase A2 (Homo sapiens) | true (1) |
| COC(=O)CNC(=O)CCCCCCc1ccccc1 | Cytosolic phospholipase A2 (Homo sapiens) | false (0) |
| CCCC[C@@H](CCC(=O)O)NC(=O)CCCCCCc1ccccc1 | Cytosolic phospholipase A2 (Homo sapiens) | false (0) |
| CCCCCCCCCCCCCCC(=O)C(=O)NCCCCC(=O)OC(C)(C)C | Cytosolic phospholipase A2 (Homo sapiens) | true (1) |
| CCCCCCCCCCCCCCC(=O)C(=O)NCC(=O)OCC | Cytosolic phospholipase A2 (Homo sapiens) | true (1) |
